experiment: Inhibition of human ERG expressed in HEK293 cells assessed as reduction in S35-MK-0499 binding
pIC50: −log10 of the molar value.
observable: pIC50

>>> df
                            molecule_smiles  measured_result
0  O=C(Nc1cccc(Cl)c1)N1CCOc2ccc(-c3ccncc3)cc2C1             5.08
